Molecular target: T1, EGFR on the surface of human tumour cells (A431, H292) (human, UniProt P00533 25-1210)
T1 construct: whole, on cells; also called EGF receptor
The threshold is 80 nM. Values of IC50 beneath it are tagged true (1); values meeting or exceeding it are tagged false (0).

Is 80 nM strictly greater than the binder's reported IC50? binder: E85-GS10-I1 pegylated (designed binder, Cys of the C-terminal Cys tail conjugated to 40 kDa branched PEG) E/I tandem 10Fn3 chain: MGVSDVPRDLEVVAATPTSLLISWTQGSTHYQYYRITYGETGGNSPVQEFTVPGMVYTATISGLKPGVDYTITVYAVTDYFDRSTHEYKYRTTPISINYRTEIDKGSGSGSGSGSGSGSGSGSGSVSDVPRDLEVVAATPTSLLISWSARLKVARYYRITYGETGGNSPVQEFTVPKNVYTATISGLKPGVDYTITVYAVTRFRDYQPISINYRTEIDKPCQHHHHHH true (1)

Is 80 nM strictly greater than the binder's reported IC50? binder: E1-GS10-I1 pegylated, His-tagged (designed binder, 40 kDa branched PEG on the Cys of the C-terminal Cys tail, also called E1-GS10-I1 (with PEG)) MGVSDVPRDLEVVAATPTSLLISWVAGAEDYQYYRITYGETGGNSPVQEFTVPHDLVTATISGLKPGVDYTITVYAVTDMMHVEYTEHPISINYRTEIDKGSGSGSGSGSGSGSGSGSGSVSDVPRDLEVVAATPTSLLISWSARLKVARYYRITYGETGGNSPVQEFTVPKNVYTATISGLKPGVDYTITVYAVTRFRDYQPISINYRTEIDKPCQHHHHHH false (0)

Is 80 nM strictly greater than the binder's reported IC50? binder: E105-GS10-I1 pegylated (designed binder, Cys of the C-terminal Cys tail conjugated to 40 kDa branched PEG) E/I tandem 10Fn3 chain: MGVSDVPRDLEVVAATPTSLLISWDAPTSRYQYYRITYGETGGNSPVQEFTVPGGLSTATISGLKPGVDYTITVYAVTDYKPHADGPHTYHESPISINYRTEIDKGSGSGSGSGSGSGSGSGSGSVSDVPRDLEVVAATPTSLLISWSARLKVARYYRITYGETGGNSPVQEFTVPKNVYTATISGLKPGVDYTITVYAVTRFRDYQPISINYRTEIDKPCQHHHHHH true (1)

Is 80 nM strictly greater than the binder's reported IC50? binder: E105-GS10-I1 pegylated (designed binder, chain 1 pos 221: Cys carrying a maleimide-linked 40 kDa branched PEG, written C, lower row of the two named E105-GS10-I1 pegylated) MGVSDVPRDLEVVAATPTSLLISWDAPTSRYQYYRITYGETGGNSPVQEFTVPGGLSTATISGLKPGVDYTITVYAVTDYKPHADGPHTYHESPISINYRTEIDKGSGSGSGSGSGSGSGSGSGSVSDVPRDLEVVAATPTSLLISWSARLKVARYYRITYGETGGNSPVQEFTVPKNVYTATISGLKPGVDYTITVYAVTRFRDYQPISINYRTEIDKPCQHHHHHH false (0)

Further cases:
Is 80 nM strictly greater than the binder's reported IC50? binder: I1-GS10-E85 pegylated, His-tagged (designed binder, 40 kDa branched PEG on the Cys of the C-terminal Cys tail) MGVSDVPRDLEVVAATPTSLLISWSARLKVARYYRITYGETGGNSPVQEFTVPKNVYTATISGLKPGVDYTITVYAVTRFRDYQPISINYRTEIDKGSGSGSGSGSGSGSGSGSGSVSDVPRDLEVVAATPTSLLISWTQGSTHYQYYRITYGETGGNSPVQEFTVPGMVYTATISGLKPGVDYTITVYAVTDYFDRSTHEYKYRTTPISINYRTEIDKPCQHHHHHH true (1)
